Sourced from paper PMC6956158

- testDetails: In vivo pharmacokinetic study in rats, intravenous DUT without or with intravenous KET
- Design: species or system rat
- measurementContext: male, Sprague-Dawley, rat, plasma, iv, 2.5 mg/kg, intravenous DUT 2.5 mg/kg, DUT alone, n = 4
quantityKind: AUC(0-t) (ng·h/mL)
Answers are plain numbers, in ng·h/mL.

Request: Quick one: AUC(0-t) of C[C@]12C=CC(=O)N[C@@H]1[C@H](O)C[C@@H]1[C@@H]2CC[C@]2(C)[C@@H](C(=O)Nc3cc(C(F)(F)F)ccc3C(F)(F)F)CC[C@@H]12 [H-DUT, 6β-hydroxydutasteride] ?
Result: 2130
